Below, each entry is listed alongside its reported log10(IC50).
tested on: Aβ 40 production in HEK-293 cells overexpressing swAPP751; assay: Inhibition of Aβ 40 production in HEK-293 cells overexpressing swAPP751 (sandwich ELISA); type: cell-based; conditions: Homo sapiens, HEK293, 7 hours incubation
Counter-ions that a name gives are not always drawn.
parameterMeasured: log10(IC50) (log10 of the value in µM)

compound | log10(IC50)
Nc1cc(CN2CCCCC2)ccc1OCCCCCSc1ccnc2cc(C(F)(F)F)ccc12 [Compound 13, trihydrochloride] | 0.92
CCOC(=O)[C@H](Cc1ccc(OCCCCCSc2ccnc3cc(C(F)(F)F)ccc23)cc1)NC(C)=O [Compound 14, hydrochloride] | -0.14
O=[N+]([O-])c1cc(CN2CCCCC2)ccc1OCCCCCSc1ccnc2cc(C(F)(F)F)ccc12 [Compound 11, dihydrochloride] | 0.39
CC(C)(C)C(=O)N1CCN(Cc2ccc(OCCCCCSc3ccnc4cc(C(F)(F)F)ccc34)cc2)CC1 [Compound 3, dihydrochloride] | 0.28
COc1cc(CN2CCOCC2)ccc1OCCCCCSc1ccnc2cc(C(F)(F)F)ccc12 [Compound 24, dihydrochloride] | 1.00
FC(F)(F)c1ccc2c(SCCCCCOc3ccc(CN4CCCCC4)cc3Cl)ccnc2c1 [Compound 10, dihydrochloride] | 0.93
FC(F)(F)c1ccc2c(SCCCCCOc3ccc(CN4CCCCC4)cc3)ccnc2c1 [Compound 5, dihydrochloride] | 0.71

====

System: Aβ 40 production in HEK-293 cells overexpressing swAPP751
Experiment: Inhibition of Aβ 40 production in HEK-293 cells overexpressing swAPP751 (sandwich ELISA)
Assay type: cell-based
Details: Homo sapiens, HEK293, 7 hours incubation
Excerpt: An exemplary assay for the analysis of inhibition of beta-secretase activity utilizes the human embryonic kidney cell line HEK-293 (ATCC Accession No. CRL-1573) stably transfected with APP751 containing the naturally occurring double mutation […] to Asn651Leu652 (numbered for APP751), commonly called the “Swedish mutation” and shown to overproduce Aβ 40 and Aβ 42 (Citron et. al., 1992, Nature 360:672-674). […]
Counter-ions that a name gives are not always drawn.

compound | assayedTarget | IC50 [µM]
Clc1ccc2c(OCCCCCOc3ccc(CN4CCOCC4)cc3)ccnc2c1 [Compound 23, dihydrochloride] | Aβ 40 production in HEK-293 cells overexpressing swAPP751 | 2.5
FC(F)(F)c1ccc2c(SCCCCCOc3ccc(CN4CCOCC4)cc3)ccnc2c1 [Compound 8, dihydrochloride] | Aβ 40 production in HEK-293 cells overexpressing swAPP751 | 5.13
CCN(CC)C(=O)N1CCN(Cc2ccc(OCCCCCSc3ccnc4cc(C(F)(F)F)ccc34)cc2)CC1 [Compound 2, dihydrochloride] | Aβ 40 production in HEK-293 cells overexpressing swAPP751 | 2.4
CCn1ncc2c(OCCCCCSc3ccnc4cc(C(F)(F)F)ccc34)ccnc21 [Compound 19, dihydrochloride] | Aβ 40 production in HEK-293 cells overexpressing swAPP751 | 15.5
FC(F)(F)c1ccc2c(SCCCCCOc3ccc(CN4CCNCC4)cc3)ccnc2c1 [Compound 1, trihydrochloride] | Aβ 40 production in HEK-293 cells overexpressing swAPP751 | 11.6
OCc1ccc(OCCCCCSc2ccnc3cc(C(F)(F)F)ccc23)cc1 [Compound 12, hydrochloride] | Aβ 40 production in HEK-293 cells overexpressing swAPP751 | 7.3
COc1cc(CN2CCOCC2)ccc1OCCCCCOc1ccnc2cc(Cl)ccc12 [Compound 22, dihydrochloride] | Aβ 40 production in HEK-293 cells overexpressing swAPP751 | 9.3
